EXPERIMENT_SUMMARY: Plasma pharmacokinetics in mice
Type: in vivo, mouse
MEASUREMENT_CONDITIONS: mouse, in vivo, ip, 5 mg/kg
Residues, ends and D or L forms follow the SMILES beside them.
ENDPOINT: half-life (min)
Report only the number, with the unit min understood.

q: Entry under review: CC[C@@H]1NC(=O)[C@@H](CC(C)C)NC(=O)[C@H](CCN)NC(=O)[C@@H](NC(=O)[C@H](CN)NC(=O)[C@@H](NC(=O)[C@H](CCN)NC(=O)c2ccc(Cl)cc2Cl)[C@@H](C)O)CCNC(=O)[C@H]([C@@H](C)O)NC(=O)[C@H](CCN)NC(=O)[C@H](CCN)NC1=O [Lipopeptide F365] (HELM PEPTIDE1{[O=C(c1ccc(Cl)cc1Cl)[*:2]].[Dab].T.[NC[C@H](N[*:1])C(=O)[*:2]].[Dab].[Dab].[dL].[Abu].[Dab].[Dab].T}$PEPTIDE1,PEPTIDE1,5:R3-11:R2$$$V2.0) . Reported half-life?
a: 18

---

MEASUREMENT_CONDITIONS: rat, in vivo, iv, 1 mg/kg
Residues, ends and D or L forms follow the SMILES beside them.
ENDPOINT: AUC(0-inf) (ng·h/mL)
Report only the number, with the unit ng·h/mL understood.

q: Entry under review: CC[C@@H]1NC(=O)[C@@H](CC(C)C)NC(=O)[C@H](CCN)NC(=O)[C@@H](NC(=O)[C@H](CN)NC(=O)[C@@H](NC(=O)[C@H](CCN)NC(=O)c2ccc(Cl)cc2Cl)[C@@H](C)O)CCNC(=O)[C@H]([C@@H](C)O)NC(=O)[C@H](CCN)NC(=O)[C@H](CCN)NC1=O [Lipopeptide F365] (HELM PEPTIDE1{[O=C(c1ccc(Cl)cc1Cl)[*:2]].[Dab].T.[NC[C@H](N[*:1])C(=O)[*:2]].[Dab].[Dab].[dL].[Abu].[Dab].[Dab].T}$PEPTIDE1,PEPTIDE1,5:R3-11:R2$$$V2.0) . Reported AUC(0-inf)?
a: 2400

---

Test system: P. aeruginosa ATCC 27853
EXPERIMENT_SUMMARY: Neutropenic mouse bloodstream infection model
Assay type: in vivo
MEASUREMENT_CONDITIONS: single IV dose 4 mg/kg, 4 h, treated minus control, mean of replicates; 4 mg/kg
Residues, ends and D or L forms follow the SMILES beside them.
ENDPOINT: Δlog10 CFU/mL blood (mean) (log10 CFU/mL blood)
Report only the number, with the unit log10 CFU/mL blood understood.

MOLECULE | Δlog10 CFU/mL blood (mean), log10 CFU/mL blood
CC[C@@H]1NC(=O)[C@@H](CC(C)C)NC(=O)[C@H](CCN)NC(=O)[C@@H](NC(=O)[C@H](CN)NC(=O)[C@@H](NC(=O)[C@H](CCN)NC(=O)c2ccc(Cl)cc2)[C@@H](C)O)CCNC(=O)[C@H]([C@@H](C)O)NC(=O)[C@H](CCN)NC(=O)[C@H](CCN)NC1=O [Lipopeptide F378] (HELM PEPTIDE1{[O=C(c1ccc(Cl)cc1)[*:2]].[Dab].T.[NC[C@H](N[*:1])C(=O)[*:2]].[Dab].[Dab].[dL].[Abu].[Dab].[Dab].T}$PEPTIDE1,PEPTIDE1,5:R3-11:R2$$$V2.0) | −3.23

q: Entry under review: CC[C@@H]1NC(=O)[C@@H](CC(C)C)NC(=O)[C@H](CCN)NC(=O)[C@@H](NC(=O)[C@H](CN)NC(=O)[C@@H](NC(=O)[C@H](CCN)NC(=O)c2cccc(Cl)c2)[C@@H](C)O)CCNC(=O)[C@H]([C@@H](C)O)NC(=O)[C@H](CCN)NC(=O)[C@H](CCN)NC1=O [Lipopeptide F371] (HELM PEPTIDE1{[O=C(c1cccc(Cl)c1)[*:2]].[Dab].T.[NC[C@H](N[*:1])C(=O)[*:2]].[Dab].[Dab].[dL].[Abu].[Dab].[Dab].T}$PEPTIDE1,PEPTIDE1,5:R3-11:R2$$$V2.0) . Reported Δlog10 CFU/mL blood (mean)?
a: −3.33
